Attribution: the DeepSol protein solubility set

# experiment.summary: soluble on expression in E. coli; label from the status in PepcDB or PDB records
measurement.kind: soluble on expression in E. coli

# seq, measurement.kind, result
measured = [
    ("MGSDKIHHHHHHMPAFIKKELIMKLQGAGLGYRRNLAEDFLQLPSNNAIQFIEVAPENWSKMGGMARYQFDQAAERFPLAVHGLSLSLGGQAPLDRELLRNTKALINQYNSSFFSEHLSYCECEGHLYDLLPMPFTEEAVKHVAQRIRDVQDFLGLQISLENTSYYLHSPTSTMNEVEFLNAIAQEADCGIHLDVNNIYVNGVNHGLLDPYIFLDQVDVKRVNYIHIAGHDEEHSAAQVVENSANESFNKVKGAYRHLPELLIDTHGEAVKGTVWDLLEYAYQRLPTIPPTLLERDFNFPPFAELYAEVEHIAQLQQKYAHTEVMSYAA", "soluble on expression in E. coli", "not soluble"),
    ("MSLKEELQLKQKLGGQKMVIQGDTLENSARRLLQERGVTMNDLAELVLFLQKDYIDNLTLDTCLESVDAVLTKREVHNAIITGVQLDILAEENKLLSPLQEILTEDEGLYGIDEIMALSIVNVYGSIGFTNYGYIDKVKPGILKELNAHDGEHVHTFLDDIVGAIAAAAASRLAHSQPDLSDITKEGGSHHHHHH", "soluble on expression in E. coli", "soluble"),
    ("MSLQPSQRVVLSHLVHGGWDEIAHSSLRPEIRGFKRTREVARSLLARRLPIYSAVFTGDCLFGNHPLLRPIGIHMQNVQAGNLLVSSTLVDGTVLNQAVCLMVHEDTEHAIGLMLNRPMQAMAGAITIQGTPQETPKIPRWNAEDLDETSEGDSTIDPSSDSIEHPVSGVPSVVISGDQKDQLAQQLLSGKLANGSSLHFGGPLSGPIVAVHSNRELAEAETGEGIFVAAQRENLEALMKSSDLPYRLIIGHLGWTAEQLENEIEEGIWHRIPATSDLLNSDDAMMWPRMIRRATANSVARWLDTTDVPGSAELNEGHHHHHH", "soluble on expression in E. coli", "soluble"),
    ("MGSDKIHHHHHHMPAMQHTQPSRPQLVYLAFGPATYHQEACFSIVSALAQLGSAAGEAMDIQVYTDNAQPYARLPVTVHLLDEATRQAWNAPHGYHFRSKHVLLRQVLQQHPLAVLIDTDTFFRTSPLHLFARVAPNRLLCNAIGTRYGADQKCLLYKNLLAILESRGLADCQMPLVNSGVIGLTAENCDTLDRSIAMMDEFYPLAREAYTLEEFCLAVAAYRNLELAECTDVIHHYWSRKAQFRAKIQAWLRKHEHDPLSPPALADVALVNDQLPRPPTLHRLGYKALSLTLPSHERQFARELLYGCYPYPNEFDRACASAWWDKALENLNDRYGHVEPERLRQCLRHPGLRLSLGERRKDIEAHLLRSTQA", "soluble on expression in E. coli", "not soluble"),
]

Note: attention shifts to another entry.
Task item: Tell me the measured soluble on expression in E. coli of MGSDKIHHHHHHMLSKFWRPQAPQMIGVDIGSYEIKAILLGKTADGYKIQAHSCVPIKKGAVVDHDIRDSAAVIEALKQVKRGLPKSAKFAAVSVSGSAVMTKVIYMDSSLTEEEMEAQIEIEADNLIPYSLDEVSIDFETLKTNKTDPTKVDVLLSACRTENIDSRVDALDAIDIDAKVVDVEGYALGRSAELIMAQLPPGAEEKSVALVDIGANMTTFAVVERGETIFTREQAFGGELFTQAILSTYGMSYDEAENAKIKGELPRNYTFEVLSPFQTQLLQQVKRTLQIYATASGKEKVDYIVLCGGTAKLEGMEALLLNELGINTVVANPFLGCLHGDELIKSQLQPNVNKYMVACGLALRSYAQWRI , please.
Reply: not soluble
